ASSAY_TARGET: Human immunodeficiency virus type 1 protease (Human immunodeficiency virus 1, UniProt Q72874)
ENDPOINT_LABEL: IC50 (µM)
Form entry: value (µM) — number only.

compound_smiles=N#Cc1cccc(OCCCc2c(O)c3ccccc3oc2=O)c1 endpoint_label=IC50 meas_value=0.67
compound_smiles=O=c1c(CCCO)c(O)oc2ccccc12 endpoint_label=IC50 meas_value=86
compound_smiles=O=c1oc2ccccc2c(O)c1CCOc1ccccc1 endpoint_label=IC50 meas_value=53
compound_smiles=O=c1oc2ccccc2c(O)c1CCCN(c1ccccc1)c1ccc(F)cc1 endpoint_label=IC50 meas_value=5.5

*Q* Any idea what IC50 was measured for O=c1oc2ccccc2c(O)c1CCCOC1CCCCC1 ?
*A* 32
